Catalogue of IC50 readings, one per entry.
- Test system: KU812 cells
- TEST_NAME: Inhibition of CML cell proliferation, KU812
- Assay type: cell-based
- MEASUREMENT_CONDITIONS: Homo sapiens
// note: answer is a bare numeric in nM

Example entries and their recorded answers appear below.
{"MOLECULE": "COc1cc(Nc2c(C#N)cnc3cc(OCCCC4CCN(C)CC4)c(OC)cc23)c(Cl)cc1Cl [Example 7]", "IC50 (nM)": 5.8}
{"MOLECULE": "COc1cc(Nc2c(C#N)cnc3cc(OCCC4CCN(C)CC4)c(OC)cc23)c(Cl)cc1Cl [Example 6]", "IC50 (nM)": 14}
{"MOLECULE": "COc1cc(Nc2c(C#N)cnc3cc(OCCCN4CCN(C)CC4)c(OC)cc23)c(Cl)cc1Cl [Example 1]", "IC50 (nM)": 5}

Please look at the following molecule next.
What does the record list as IC50 for COc1cc(Nc2c(C#N)cnc3cc(OCC4CCN(C)CC4)c(OC)cc23)c(Cl)cc1Cl [Example 5] ? 13.4
